# test_description: Quantitative High-Throughput drug screen in 47 multiple myeloma cell lines against the NCATS MIPE library collection: LP1_DSMZ cell viability assay (AID 1918982); note: nearly all actives have a fitted effect of over 35% in size
# run_conditions: LP1 myeloma viability, CellTiter-Glo ATP luminescence, 48 h; series mostly up to 45.8 µM
Results filed as inconclusive are left out. The source made the active and inactive calls. Calls come from the whole dose curve; as a rule, active = well fitted cell-killing curve with a large enough effect; inconclusive = small, poorly fitted or top-dose-only effect, or effect the other way; inactive = no such curve, though single readings can be large or run the other way.
Possible outcomes: active, inactive

[
  {
    "molecule": "CC(N)C12CC3CC(CC(C3)C1)C2 (configuration not stated)",
    "cat": "inactive"
  },
  {
    "molecule": "COc1cc([C@@H]2c3cc4c(cc3[C@H](O)[C@H]3COC(=O)[C@H]23)OCO4)cc(OC)c1OC",
    "cat": "inactive"
  },
  {
    "molecule": "C1CCC(C(CC2CCCCN2)C2CCCCC2)CC1 (configuration not stated)",
    "cat": "active"
  },
  {
    "molecule": "CCN[C@H]1C[C@H](C)S(=O)(=O)c2sc(S(N)(=O)=O)cc21",
    "cat": "inactive"
  },
  {
    "molecule": "CCN(CC)CCn1c(=O)c(Cc2ccc(OC)cc2)nc2ccccc21",
    "cat": "inactive"
  },
  {
    "molecule": "COc1cc2ncnc(Nc3cccc(Cl)c3)c2cc1OC",
    "cat": "inactive"
  },
  {
    "molecule": "CC(=O)Oc1ccccc1C(=O)Nc1ncc([N+](=O)[O-])s1",
    "cat": "active"
  },
  {
    "molecule": "NNC(=O)c1ccncc1",
    "cat": "inactive"
  },
  {
    "molecule": "CC1(C)[C@H](C(=O)O)N2C(=O)C[C@H]2S1(=O)=O",
    "cat": "active"
  },
  {
    "molecule": "CC(C)(C)C(=O)OCOP(=O)(COCCn1cnc2c(N)ncnc21)OCOC(=O)C(C)(C)C",
    "cat": "active"
  },
  {
    "molecule": "Cc1ncc([N+](=O)[O-])n1CCO",
    "cat": "inactive"
  },
  {
    "molecule": "CO[C@@H]1[C@@H](OC(N)=O)[C@@H](O)[C@H](Oc2ccc3c(O)c(NC(=O)c4ccc(O)c(CC=C(C)C)c4)c(=O)oc3c2C)OC1(C)C",
    "cat": "inactive"
  },
  {
    "molecule": "COC(=O)Nc1nc2ccc(Sc3ccccc3)cc2[nH]1",
    "cat": "active"
  },
  {
    "molecule": "O=C(N[C@H](CO)[C@H](O)c1ccc([N+](=O)[O-])cc1)C(Cl)Cl",
    "cat": "inactive"
  },
  {
    "molecule": "CCCCCCNC(=O)n1cc(F)c(=O)[nH]c1=O",
    "cat": "active"
  },
  {
    "molecule": "CCCc1nc(C)c2c(=O)[nH]c(-c3cc(S(=O)(=O)N4CCN(CC)CC4)ccc3OCC)nn12",
    "cat": "active"
  },
  {
    "molecule": "Nc1ccc(S(=O)(=O)Nc2ccccn2)cc1",
    "cat": "inactive"
  },
  {
    "molecule": "CC(C)C[C@H](NC(=O)[C@H](CCc1ccccc1)NC(=O)CN1CCOCC1)C(=O)N[C@@H](Cc1ccccc1)C(=O)N[C@@H](CC(C)C)C(=O)[C@@]1(C)CO1",
    "cat": "active"
  },
  {
    "molecule": "CCCCS(=N)(=O)CCC(N)C(=O)O (configuration not stated)",
    "cat": "inactive"
  },
  {
    "molecule": "CCCN[C@H]1CCc2nc(N)sc2C1",
    "cat": "inactive"
  },
  {
    "molecule": "CC(C)OC(=O)OCOP(=O)(CO[C@H](C)Cn1cnc2c(N)ncnc21)OCOC(=O)OC(C)C",
    "cat": "inactive"
  },
  {
    "molecule": "NS(=O)(=O)c1cc2c(cc1Cl)NC(C(Cl)Cl)NS2(=O)=O (configuration not stated)",
    "cat": "inactive"
  },
  {
    "molecule": "COc1c(N2CCNC(C)C2)c(F)cc2c(=O)c(C(=O)O)cn(C3CC3)c12 (configuration not stated)",
    "cat": "inactive"
  },
  {
    "molecule": "CCn1cc(C(=O)O)c(=O)c2cc(F)c(N3CCN(C)CC3)cc21",
    "cat": "inactive"
  },
  {
    "molecule": "O=S(=O)(c1cccc2cnccc12)N1CCCNCC1",
    "cat": "inactive"
  },
  {
    "molecule": "COc1ncnc(NS(=O)(=O)c2ccc(N)cc2)c1OC",
    "cat": "inactive"
  },
  {
    "molecule": "CC1=CC(=O)c2ccccc2C1=O",
    "cat": "active"
  },
  {
    "molecule": "CC(C)(C#N)c1cc(Cn2cncn2)cc(C(C)(C)C#N)c1",
    "cat": "inactive"
  },
  {
    "molecule": "NC(=O)c1ccc2[nH]ccc2c1",
    "cat": "inactive"
  },
  {
    "molecule": "CC(C)(Sc1cc(C(C)(C)C)c(O)c(C(C)(C)C)c1)Sc1cc(C(C)(C)C)c(O)c(C(C)(C)C)c1",
    "cat": "inactive"
  },
  {
    "molecule": "Nc1[nH]c(=O)ncc1F",
    "cat": "inactive"
  },
  {
    "molecule": "CCOC(=O)[C@H](CCc1ccccc1)N[C@H]1CCc2ccccc2N(CC(=O)O)C1=O",
    "cat": "active"
  }
]

====

# Test system: Tov-21-G
# test_description: Primary qHTS to identify gynecologic anti-cancer compounds using libraries of approved drugs and bioactive compounds (AID 1345084); note: nearly all actives have a fitted effect of over 55% in size
# run_conditions: Gynecologic cancer cell panel viability, ATPlite luminescence, 48 h; series mostly up to 57.5 µM
Records with an inconclusive call do not appear. Active and inactive are the calls of the source. Calls follow the shape of the dose curve; as a rule, active = well fitted cell-killing curve with a large enough effect; inconclusive = small, poorly fitted or top-dose-only effect, or effect the other way; inactive = flat fitted curve, though single readings scatter.
Outcome codes: active, inactive

[
  {
    "smiles_data": "CC1=CC(=O)c2ccccc2C1=O",
    "cat": "inactive"
  },
  {
    "smiles_data": "CCCOc1ccc(C(=O)OCCN(CC)CC)cc1N",
    "cat": "inactive"
  },
  {
    "smiles_data": "CCN[C@H]1C[C@H](C)S(=O)(=O)c2sc(S(N)(=O)=O)cc21",
    "cat": "inactive"
  },
  {
    "smiles_data": "N=C(N)c1ccc(OCCCCCOc2ccc(C(=N)N)cc2)cc1",
    "cat": "inactive"
  },
  {
    "smiles_data": "COc1ccc2c(c1)c(CC(=O)OCC(=O)O)c(C)n2C(=O)c1ccc(Cl)cc1",
    "cat": "inactive"
  },
  {
    "smiles_data": "CCOC(=O)c1ccc(OC(=O)CCCCCN=C(N)N)cc1",
    "cat": "inactive"
  },
  {
    "smiles_data": "COC(=O)Nc1nc2ccc(Sc3ccccc3)cc2[nH]1",
    "cat": "active"
  },
  {
    "smiles_data": "CC(C)Cn1cnc2c(N)nc3ccccc3c21",
    "cat": "inactive"
  }
]

====

# test_description: qHTS of pediatric cancer cell lines to identify multiple opportunities for drug repurposing: Primary screen for MG 63 (6-TG R) cells (AID 1347105); note: nearly all actives have a fitted effect of over 50% in size
# run_conditions: MG 63 (6-TG R) viability, CellTiter-Glo, 48 h; series mostly up to 46 µM
Inconclusive results are not listed. Calls of active or inactive are those of the source. The call rests on the fitted dose curve; in most records, active means well fitted cell-killing curve with a large enough effect; inconclusive means small, poorly fitted or top-dose-only effect; inactive means no such curve, though single readings can be large or run the other way.
Outcome codes: active, inactive

[
  {
    "compound": "NC(=O)c1cccnc1",
    "cat": "inactive"
  },
  {
    "compound": "COc1ccccc1OCC(O)COC(N)=O (stereo not drawn)",
    "cat": "inactive"
  },
  {
    "compound": "CCN(C)C(=O)Oc1cccc([C@H](C)N(C)C)c1",
    "cat": "inactive"
  },
  {
    "compound": "CC(=O)[C@H]1CC[C@H]2[C@@H]3CCC4=CC(=O)CC[C@]4(C)[C@H]3CC[C@]12C",
    "cat": "active"
  },
  {
    "compound": "OCc1ccc(-c2nn(Cc3ccccc3)c3ccccc23)o1",
    "cat": "inactive"
  },
  {
    "compound": "COc1c(N2CCNC(C)C2)c(F)cc2c(=O)c(C(=O)O)cn(C3CC3)c12 (stereo not drawn)",
    "cat": "inactive"
  },
  {
    "compound": "CN(C)CCc1c[nH]c2ccc(CS(=O)(=O)N3CCCC3)cc12",
    "cat": "inactive"
  },
  {
    "compound": "CCCCCCNC(=O)n1cc(F)c(=O)[nH]c1=O",
    "cat": "inactive"
  },
  {
    "compound": "O=C(O)c1cc(=O)[nH]c(=O)[nH]1",
    "cat": "inactive"
  },
  {
    "compound": "CN(C)CCc1c[nH]c2ccc(C[C@H]3COC(=O)N3)cc12",
    "cat": "inactive"
  },
  {
    "compound": "COCCCOc1cc(C[C@@H](C[C@H](N)[C@@H](O)C[C@H](C(=O)NCC(C)(C)C(N)=O)C(C)C)C(C)C)ccc1OC",
    "cat": "inactive"
  },
  {
    "compound": "CCOC(=O)c1ccc(OC(=O)CCCCCN=C(N)N)cc1",
    "cat": "inactive"
  },
  {
    "compound": "CCCOc1ccc(C(=O)OCCN(CC)CC)cc1N",
    "cat": "inactive"
  }
]
